SYSTEM_NAME: GPX4 (Homo sapiens)
Sequence (P36969 28-197): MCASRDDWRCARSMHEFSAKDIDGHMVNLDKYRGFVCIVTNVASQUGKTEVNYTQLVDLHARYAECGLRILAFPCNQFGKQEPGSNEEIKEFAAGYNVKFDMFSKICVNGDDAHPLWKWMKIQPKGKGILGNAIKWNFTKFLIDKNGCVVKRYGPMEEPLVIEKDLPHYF
ASSAY: GPX4 activity assay in cell lysates (NADPH-coupled)
Assay type: biochemical
Set-up: endogenous in cells; host or cells: A-673 cell lysate
SETTINGS: 200 μM; generation 1; mean ± s.d., n = 3
Bucketed by reported GPX4% inhibition at 200 (μM), buckets being LOW: < 20%; MEDIUM: ≥ 20% and < 60%; HIGH: ≥ 60%

Q) The entry to classify is C=CC(=O)OCC(C)(C)NC(=O)Cc1cc2ccccc2[nH]1 ; which class holds it?
A) LOW

Q) Thanks! And CC(C)(COC(=O)CBr)NC(=O)c1cc2cc([N+](=O)[O-])ccc2[nH]1 ?
A) HIGH

Q) Now the compound CC(C)(COC(=O)CCl)NC(=O)c1cc2cc(F)ccc2[nH]1
A) MEDIUM

Q) What do you get for CC(C)(COC(=O)CCl)NC(=O)c1ccc[nH]1 ?
A) MEDIUM

Q) How about Cn1cc(C(=O)NC(C)(C)COC(=O)CCl)c2ccc(Br)cc21 ?
A) HIGH

Q) Next record, please: COc1ccc2cc(C(=O)NC(C)(C)CCOC(=O)CCl)[nH]c2c1
A) HIGH

Q) What do we get for COc1ccc2[nH]cc(C(=O)NC(C)(C)COC(=O)CCl)c2c1 ?
A) LOW

Q) # iterate: C=CC(=O)OCC(C)(C)NC(=O)c1cc2c(OC)cccc2[nH]1
A) LOW

Q) How about this compound: Cc1onc(C(=O)OCC(C)(C)NC(=O)c2cccs2)c1[N+](=O)[O-]
A) LOW

Q) Input Cc1onc(C(=O)OCC(C)(C)NC(=O)c2cc3ccccc3s2)c1[N+](=O)[O-]
A) LOW

Q) Continue with CC(C)(COC(=O)CCl)NC(=O)c1cc2cc(F)c(F)cc2[nH]1
A) MEDIUM

Q) Request: C=CC(=O)OCC(C)(C)NC(=O)c1c[nH]c2ccccc12
A) LOW

Q) Another: C=CC(=O)OCC(C)(C)NC(=O)c1cc2ccccc2[nH]1
A) LOW

Q) Do the same for Cc1onc(C(=O)OCC(C)(C)NC(=O)Cc2cc3ccccc3[nH]2)c1[N+](=O)[O-] please
A) LOW

Q) Would you mind doing COc1ccc2cc(C(=O)NC(C)(C)COC(=O)CBr)[nH]c2c1 as well?
A) HIGH

Q) And the next one, COc1ccc2cc(C(=O)NC(C)(C)CCOC(=O)CBr)[nH]c2c1 ?
A) HIGH

Q) Request: Cn1c(C(=O)NC(C)(C)COC(=O)CCl)cc2ccc(Br)cc21
A) HIGH

Q) Try this compound too: CC(C)(COC(=O)CBr)NC(=O)c1cccs1
A) MEDIUM

Q) Now consider C=CC(=O)OCCCNC(=O)c1cc2cc(Cl)ccc2[nH]1 and answer again.
A) LOW

Q) Next entry: O=C(CBr)OCCCNC(=O)c1cc2cc(Cl)ccc2[nH]1
A) HIGH

Q) Check CC(C)(COC(=O)CBr)NC(=O)c1cc2cc(Cl)ccc2[nH]1 too.
A) HIGH

Q) Entry CC(C)(COC(=O)CBr)NC(=O)CCc1cc2ccccc2[nH]1 please
A) MEDIUM

Q) For Cc1ccc2[nH]c(C(=O)NC(C)(C)COC(=O)CCl)cc2c1 then?
A) MEDIUM

Q) Also, C=CC(=O)OCC(C)(C)NC(=O)c1cc2cc(C)ccc2[nH]1 please.
A) LOW

Q) // query: C=CC(=O)OCC(C)(C)NC(=O)c1cccs1
A) MEDIUM

Q) Query COc1ccc2cc(C(=O)NC(C)(C)COC(=O)CCl)[nH]c2c1 next
A) HIGH

Q) Same read-out for C=CC(=O)OCC(C)(C)NC(=O)c1cc2cc([N+](=O)[O-])ccc2[nH]1 ?
A) LOW

Q) Entry COc1ccc2cc(C(=O)NC(C)(C)COC(=O)CCl)n(C)c2c1 please
A) HIGH

Q) Now the compound O=C(CCl)OCCCNC(=O)c1cc2cc(Cl)ccc2[nH]1
A) HIGH

Q) Try this compound next: Cc1onc(C(=O)OCC(C)(C)NC(=O)c2ccc[nH]2)c1[N+](=O)[O-]
A) LOW

Q) Moving on to the next compound: CC(C)(COC(=O)CBr)NC(=O)c1cc2ccccc2s1
A) HIGH

Q) Now try CC(C)(COC(=O)CCl)NC(=O)c1cc2ccccc2s1 .
A) MEDIUM

Q) Record: Cc1ccc2[nH]c(C(=O)NC(C)(C)COC(=O)CBr)cc2c1
A) HIGH

Q) Follow-up item: CC(C)(COC(=O)CBr)NC(=O)Cc1cc2ccccc2[nH]1
A) MEDIUM

Q) Same question, CC(C)(COC(=O)CCl)NC(=O)c1cc2ccc(F)cc2[nH]1 this time
A) HIGH

Q) C=CC(=O)OCC(C)(C)NC(=O)c1cc2cc(Cl)ccc2[nH]1 , same question.
A) LOW

Q) What about this compound? CC(C)(COC(=O)CCl)NC(=O)c1cccs1
A) MEDIUM

Q) Same thing, different compound: C=CC(=O)OCC(C)(C)NC(=O)c1ccc[nH]1
A) LOW
